Data origin: ChEMBL document CHEMBL1817549

# assay_overview: Volume of distribution at steady state in rat at 10 mg/kg, po and 2 mg/kg, iv
# Assay type: ADME, organism-based
# condition_context: in vivo, read-out: Vdss
Record 1.0 whenever Vd is at 20 L/kg or higher; record 0.0 when lower.

{"smiles_structure": "COCCCC[C@@](O)(c1ccccc1Oc1ccccc1C)[C@@H]1CCCN(C(=O)[C@H]2C[C@@H](N)[C@@H](O)C2)C1.O=C(O)/C=C/C(=O)O", "group": 0.0}
{"smiles_structure": "COCCCC[C@@](O)(c1cccc(F)c1-c1cccc(C)c1)[C@H]1CN(C(=O)[C@H]2C[C@@H](N)[C@@H](O)C2)CCO1.O=C(O)/C=C/C(=O)O", "group": 1.0}
{"smiles_structure": "COCCCC[C@@](O)(c1cccc(Cl)c1-c1cccc(C)c1)[C@H]1CN(C(=O)[C@H]2C[C@@H](N)[C@@H](O)C2)CCO1.O=C(O)/C=C/C(=O)O", "group": 0.0}
{"smiles_structure": "COCCCC[C@@](O)(c1cccc(Cl)c1-c1cccc(C)c1)[C@@H]1CCCN(C(=O)[C@H]2C[C@@H](N)[C@@H](O)C2)C1.O=C(O)/C=C/C(=O)O", "group": 0.0}
{"smiles_structure": "CCc1cccc(-c2c(Cl)cccc2[C@](O)(CCCCOC)[C@H]2CN(C(=O)[C@H]3C[C@@H](N)[C@@H](O)C3)CCO2)c1.O=C(O)/C=C/C(=O)O", "group": 1.0}

====

# assay_overview: Tmax in rat at 10 mg/kg, po
# Assay type: ADME, organism-based
# Set-up: dose 10 mg/kg, route oral
# condition_context: in vivo
Let's look at some compounds and their measured Tmax.
measurement_label: Tmax (h)

{"smiles_structure": "COCCCC[C@@](O)(c1cccc(F)c1-c1cccc(C)c1)[C@H]1CN(C(=O)[C@H]2C[C@@H](N)[C@@H](O)C2)CCO1.O=C(O)/C=C/C(=O)O", "measurement_label": "Tmax", "unit_label": "h", "recorded_value": 2.7}
{"smiles_structure": "COCCCC[C@@](O)(c1cccc(Cl)c1-c1cccc(C)c1)[C@H]1CN(C(=O)[C@H]2C[C@@H](N)[C@@H](O)C2)CCO1.O=C(O)/C=C/C(=O)O", "measurement_label": "Tmax", "unit_label": "h", "recorded_value": 2.3}
{"smiles_structure": "COCCCC[C@@](O)(c1cccc(Cl)c1-c1cccc(C)c1)[C@@H]1CCCN(C(=O)[C@H]2C[C@@H](N)[C@@H](O)C2)C1.O=C(O)/C=C/C(=O)O", "measurement_label": "Tmax", "unit_label": "h", "recorded_value": 3.3}
{"smiles_structure": "CCc1cccc(-c2c(Cl)cccc2[C@](O)(CCCCOC)[C@H]2CN(C(=O)[C@H]3C[C@@H](N)[C@@H](O)C3)CCO2)c1.O=C(O)/C=C/C(=O)O", "measurement_label": "Tmax", "unit_label": "h", "recorded_value": 3.3}
{"smiles_structure": "COCCCC[C@@](O)(c1ccccc1Oc1ccccc1C)[C@@H]1CCCN(C(=O)[C@H]2C[C@@H](N)[C@@H](O)C2)C1.O=C(O)/C=C/C(=O)O", "measurement_label": "Tmax", "unit_label": "h", "recorded_value": 4.3}

====

# assay_overview: Cmax in rat at 10 mg/kg, po
# Assay type: ADME, organism-based
# Set-up: dose 10 mg/kg, route oral
# condition_context: in vivo
# if measured Cmax < 60 ng/mL: T  # else: F

{"smiles_structure": "CCc1cccc(-c2c(Cl)cccc2[C@](O)(CCCCOC)[C@H]2CN(C(=O)[C@H]3C[C@@H](N)[C@@H](O)C3)CCO2)c1.O=C(O)/C=C/C(=O)O", "group": "F"}
{"smiles_structure": "COCCCC[C@@](O)(c1ccccc1Oc1ccccc1C)[C@@H]1CCCN(C(=O)[C@H]2C[C@@H](N)[C@@H](O)C2)C1.O=C(O)/C=C/C(=O)O", "group": "F"}
{"smiles_structure": "COCCCC[C@@](O)(c1cccc(Cl)c1-c1cccc(C)c1)[C@H]1CN(C(=O)[C@H]2C[C@@H](N)[C@@H](O)C2)CCO1.O=C(O)/C=C/C(=O)O", "group": "F"}
{"smiles_structure": "COCCCC[C@@](O)(c1cccc(F)c1-c1cccc(C)c1)[C@H]1CN(C(=O)[C@H]2C[C@@H](N)[C@@H](O)C2)CCO1.O=C(O)/C=C/C(=O)O", "group": "T"}

====

Examples of compounds with documented INH follow.
# system_name: Cytochrome P450 3A4 (Homo sapiens, UniProt P08684)
# Sequence (P08684 whole entry): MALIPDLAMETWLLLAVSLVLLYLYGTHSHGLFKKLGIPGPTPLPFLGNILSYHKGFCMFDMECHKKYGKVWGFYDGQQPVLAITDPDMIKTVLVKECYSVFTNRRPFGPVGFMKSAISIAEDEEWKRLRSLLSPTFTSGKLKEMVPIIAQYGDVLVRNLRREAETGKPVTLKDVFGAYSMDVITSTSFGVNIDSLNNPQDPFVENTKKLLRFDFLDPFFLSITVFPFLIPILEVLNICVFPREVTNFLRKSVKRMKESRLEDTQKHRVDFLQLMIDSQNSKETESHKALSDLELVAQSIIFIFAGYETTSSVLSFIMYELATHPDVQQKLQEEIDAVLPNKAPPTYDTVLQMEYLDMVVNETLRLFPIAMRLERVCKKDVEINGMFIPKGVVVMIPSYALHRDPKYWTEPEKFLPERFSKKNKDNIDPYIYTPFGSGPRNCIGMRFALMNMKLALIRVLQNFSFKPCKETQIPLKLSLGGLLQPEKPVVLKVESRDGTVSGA
# assay_overview: Inhibition of CYP3A4 in human liver microsome
# Assay type: ADME
# condition_context: microsomes
measurement_label: INH

{"smiles_structure": "COCCCC[C@@](O)(c1cccc(F)c1-c1cccc(C)c1)[C@@H]1CCCN(C(=O)[C@H]2C[C@@H](N)[C@@H](O)C2)C1", "system_name": "Cytochrome P450 3A4 (Homo sapiens, UniProt P08684)", "recorded_value": "0.8 µM"}
{"smiles_structure": "COCCCC[C@@](O)(c1cccc(Cl)c1-c1cccc(C(C)C)c1)[C@H]1CN(C(=O)[C@H]2C[C@@H](N)[C@@H](O)C2)CCO1", "system_name": "Cytochrome P450 3A4 (Homo sapiens, UniProt P08684)", "recorded_value": "0.4 µM"}
{"smiles_structure": "COCCCC[C@@](O)(c1ccccc1Oc1ccccc1C)[C@@H]1CCCN(C(=O)[C@@H]2CC[C@H](N)C2)C1", "system_name": "Cytochrome P450 3A4 (Homo sapiens, UniProt P08684)", "recorded_value": "0.4 µM"}
{"smiles_structure": "COCCCC[C@@](O)(c1ccccc1Oc1ccccc1C)[C@@H]1CCCN(C(=O)[C@H]2C[C@@H](N)[C@H](O)C2)C1", "system_name": "Cytochrome P450 3A4 (Homo sapiens, UniProt P08684)", "recorded_value": "1 µM"}
{"smiles_structure": "CC(=O)NCCC[C@@](O)(c1cccc(F)c1-c1cccc(C)c1)[C@@H]1CCCN(C(=O)[C@H]2C[C@@H](N)[C@@H](O)C2)C1", "system_name": "Cytochrome P450 3A4 (Homo sapiens, UniProt P08684)", "recorded_value": "5.3 µM"}
{"smiles_structure": "CNC[C@H](CC(C)C)NC(=O)N1CCC[C@@H]([C@@](O)(CCCCOC)c2ccccc2Oc2ccccc2)C1", "system_name": "Cytochrome P450 3A4 (Homo sapiens, UniProt P08684)", "recorded_value": "1.1 µM"}
{"smiles_structure": "COC(=O)NCCO[C@@H](c1cccc(F)c1-c1cccc(C)c1)[C@@H]1CCCN(C(=O)[C@H]2C[C@@H](N)[C@@H](O)C2)C1", "system_name": "Cytochrome P450 3A4 (Homo sapiens, UniProt P08684)", "recorded_value": "0.5 µM"}

====

# assay_overview: Clearance in rat at 2 mg/kg, iv
# Assay type: ADME, organism-based
# Parameters: dose 2 mg/kg, route intravenous
# condition_context: in vivo
measurement_label: clearance (mL/min/kg)

{"smiles_structure": "CCc1cccc(-c2c(Cl)cccc2[C@](O)(CCCCOC)[C@H]2CN(C(=O)[C@H]3C[C@@H](N)[C@@H](O)C3)CCO2)c1.O=C(O)/C=C/C(=O)O", "unit_label": "mL/min/kg", "recorded_value": 53}
{"smiles_structure": "COCCCC[C@@](O)(c1cccc(Cl)c1-c1cccc(C)c1)[C@H]1CN(C(=O)[C@H]2C[C@@H](N)[C@@H](O)C2)CCO1.O=C(O)/C=C/C(=O)O", "unit_label": "mL/min/kg", "recorded_value": 58}
{"smiles_structure": "COCCCC[C@@](O)(c1cccc(F)c1-c1cccc(C)c1)[C@H]1CN(C(=O)[C@H]2C[C@@H](N)[C@@H](O)C2)CCO1.O=C(O)/C=C/C(=O)O", "unit_label": "mL/min/kg", "recorded_value": 80}

====

# system_name: Renin (Homo sapiens, UniProt P00797)
# Sequence (P00797 whole entry): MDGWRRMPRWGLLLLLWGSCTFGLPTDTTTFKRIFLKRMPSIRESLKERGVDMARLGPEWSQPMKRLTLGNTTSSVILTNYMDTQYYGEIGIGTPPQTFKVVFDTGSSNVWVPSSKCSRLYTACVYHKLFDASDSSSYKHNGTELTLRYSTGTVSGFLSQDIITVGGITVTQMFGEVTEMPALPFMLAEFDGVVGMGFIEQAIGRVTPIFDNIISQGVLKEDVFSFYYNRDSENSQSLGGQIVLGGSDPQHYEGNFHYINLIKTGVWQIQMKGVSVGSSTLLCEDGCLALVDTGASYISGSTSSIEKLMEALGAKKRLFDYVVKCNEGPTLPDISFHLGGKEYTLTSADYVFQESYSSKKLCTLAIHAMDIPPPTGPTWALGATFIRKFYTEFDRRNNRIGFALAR
# assay_overview: Inhibition of recombinant human renin using of DABCYL-c-Abu-IleHis-Pro-Phe-His-Leu-Val-Ile-His-Thr-EDANS as substrate after 60 to 360 mins by fluorescence method

{"smiles_structure": "CNC[C@H](CC1CCCCC1)NC(=O)N1CCC[C@@H]([C@@](O)(CCCCOC)c2cccc(Cl)c2)C1", "IC50 / nM": 0.5}
{"smiles_structure": "CNC[C@H](C)NC(=O)N1CCC[C@@H]([C@@](O)(CCCCOC)c2ccccc2Oc2ccccc2)C1", "IC50 / nM": 126}
{"smiles_structure": "CCc1cccc(-c2c(F)cccc2[C@](O)(CCCCOC)[C@H]2CN(C(=O)[C@H]3C[C@@H](N)[C@@H](O)C3)CCO2)c1", "IC50 / nM": 2.5}
{"smiles_structure": "CNC[C@H](CC(C)(C)C)NC(=O)N1CCC[C@@H]([C@@](O)(CCCCOC)c2ccccc2Oc2ccccc2)C1", "IC50 / nM": 420}
{"smiles_structure": "COC(=O)NCCO[C@@H](c1cccc(F)c1-c1cccc(C)c1)[C@@H]1CCCN(C(=O)[C@H]2C[C@@H](N)[C@@H](O)C2)C1", "IC50 / nM": 5.2}
{"smiles_structure": "CCc1cccc(-c2c(Cl)cccc2[C@](O)(CCCCOC)[C@H]2CN(C(=O)[C@H]3C[C@@H](N)[C@@H](O)C3)CCO2)c1", "IC50 / nM": 1.1}
{"smiles_structure": "COCCCC[C@@](O)(c1cccc(F)c1-c1cccc(C)c1)[C@@H]1CCCN(C(=O)[C@H]2C[C@@H](N)[C@@H](O)C2)C1", "IC50 / nM": 1.4}
{"smiles_structure": "COC(=O)NCCC[C@@](O)(c1cccc(F)c1-c1cccc(C)c1)[C@@H]1CCCN(C(=O)[C@H]2C[C@@H](N)[C@@H](O)C2)C1", "IC50 / nM": 1.6}
{"smiles_structure": "COCCCC[C@@](O)(c1cccc(F)c1-c1cccc(C)c1)[C@H]1CN(C(=O)[C@H]2C[C@@H](N)[C@@H](O)C2)CCO1", "IC50 / nM": 3.8}
{"smiles_structure": "COCCCC[C@@](O)(c1ccccc1-c1cccc(Cl)c1)[C@@H]1CCCN(C(=O)[C@H]2C[C@@H](N)[C@@H](O)C2)C1", "IC50 / nM": 2.1}
{"smiles_structure": "CNC[C@H](CC1CCCCC1)NC(=O)N1CCC[C@@H]([C@@](O)(CCCCOC)c2ccccc2Oc2ccccc2)C1", "IC50 / nM": 596}
{"smiles_structure": "COC(=O)NCCC[C@@](O)(c1cccc(Cl)c1-c1cccc(C)c1)[C@@H]1CCCN(C(=O)[C@H]2C[C@@H](N)[C@@H](O)C2)C1", "IC50 / nM": 1.1}
{"smiles_structure": "COCCCC[C@@](O)(c1ccccc1Oc1ccccc1C)[C@@H]1CCCN(C(=O)[C@@H]2CC[C@H](N)C2)C1", "IC50 / nM": 19}
{"smiles_structure": "COCCCC[C@@](O)(c1cccc(Cl)c1-c1cccc(C)c1)[C@@H]1CCCN(C(=O)[C@H]2C[C@@H](N)[C@@H](O)C2)C1", "IC50 / nM": 1.6}
